Sourced from PubChem BioAssay AID1159564

# System: L. donovani-infected THP-1 macrophages, intracellular amastigote imaging
# Test description: antileishmanial activity in infected THP-1 macrophages – imaging, THP-1 host macrophages, host toxicity (AID 1159564)
# Recorded conditions: measured here: THP-1 host cell toxicity
pIC50: −log10 of the molar value.
Each entry below carries its recorded pIC50.
Experimental endpoint: pIC50

1) O=C1OCc2ccc(Nc3nccc(-c4cnn5ncccc45)n3)cc21; 8.10
2) O=C(CN(c1cccc(C(F)(F)F)c1)S(=O)(=O)c1ccc(Cl)cc1)NCc1ccc(F)c(F)c1; 4.70
3) CC(=O)Nc1ccc(-c2ccnc(Nc3cccc(C#N)c3)n2)cc1; 5.00
4) Cc1ccc(NC(C)C(=O)Nc2ccc(C#N)cc2)cc1S(=O)(=O)N1CCCCC1 (configuration not stated); 4.30
5) CCOc1ccc(NC(=O)c2ccc(NC(=O)NC3CCCCC3)cc2)cc1; 5.40
6) CN(C)c1ccc(-c2cc3nccnc3c(OC[C@H]3CCCNC3)n2)cn1; 4.70
7) CC(=O)Nc1ccc(-c2cnc(N)c(-c3nc4ccc(F)cc4[nH]3)c2)cc1; 5.10
8) CCOc1ccc(NC(=O)C=Cc2ccc(CC)o2)cc1; 4.70
9) c1ccc(-c2nc(NC3CCCCC3)cc(C3CC3)n2)nc1; 4.70
10) Cc1[nH]nc(C(F)(F)F)c1NC(=O)CCn1cc(Cl)c([N+](=O)[O-])n1; 4.80
11) Cc1cc(N2CCc3ccccc3C2)nc(Nc2ccc(S(=O)(=O)N3CCOCC3)cc2)n1; 4.60
12) CC1(C)CCC(=Cc2ccc(Cl)cc2)CC1(O)Cn1ccnc1 (configuration not stated); 4.89

###

# System: L. donovani-infected THP-1 macrophages, intracellular amastigote imaging
# Test description: antileishmanial activity in infected THP-1 macrophages – imaging, THP-1 host macrophages, host toxicity (AID 1159564)
# Recorded conditions: measured here: THP-1 host cell toxicity
pIC50: −log10 of the molar value.
# Lookup of reported pIC50 keyed by entry
Experimental endpoint: pIC50

1. NC(=O)c1ccsc1NC(=O)c1ccc([N+](=O)[O-])s1; 4.89
2. CC(C)(C)C(Cn1ccnc1)NC(=O)c1ccc2nc(C3CC3)oc2c1 (stereo unspecified); 4.80
3. O=c1cc(NCCCNCc2cc(C(F)(F)F)cs2)[nH]c2ccccc12; 4.70
4. Cc1cc(N(C)C)nc(Nc2ccccc2C)n1; 4.40
5. Cc1nc2c(-c3nc(-c4ccc(N)cc4)n[nH]3)cccn2c1C; 4.89
6. CCc1ccc2nc(NC(=O)c3cc(N4CCOCC4)ccn3)sc2c1; 5.00
7. Cc1cc(NC(=O)C2CC2)ccc1OC1CCN(Cc2ccco2)CC1; 4.89
8. Cc1nn(-c2nc(N)nc(-c3ccccn3)n2)c(N)c1-c1ccccc1; 4.70
9. CCN(Cc1nc2ccc(C(=O)N3CCN(c4ncccn4)CC3)cc2[nH]1)C1CCCc2cccnc21 (stereo unspecified); 4.70
10. CC(C)(C)C(=O)Nc1cc(C2CC2)nn1-c1nc2c(c(=O)[nH]1)CCCC2; 5.10
11. COc1ccc2nccc(NC(=O)C3(OC)CCN(CC(O)c4ccc5c(c4)OCCO5)CC3)c2n1 (stereo unspecified); 4.60

###

# Test system: L. donovani-infected THP-1 macrophages, intracellular amastigote imaging
# Test description: antileishmanial activity in infected THP-1 macrophages – imaging, THP-1 host macrophages, host toxicity (AID 1159564)
# Recorded conditions: measured here: THP-1 host cell toxicity
pIC50: −log10 of the molar value.
Experimental endpoint: pIC50

1. COc1ccc(CN2CCCCC2c2nc(-c3cccnc3)no2)cc1 (stereo not drawn); < 4.30
2. O=C(CSc1ccc(F)cc1)N[C@@H](Cc1cnc[nH]1)C(=O)NCCc1ccccc1; < 4.30
3. O=C(NCC(c1cccs1)N1CCOCC1)c1ccc([N+](=O)[O-])o1 (stereo not drawn); 4.60
4. O=C(NCC(c1cccnc1)N1CCc2ccccc2C1)C(=O)Nc1cccc(Cl)c1 (stereo not drawn); < 4.30
5. Cc1ccc2nc(N(Cc3cccnc3)C(=O)CCc3ccccc3)sc2c1; < 4.30
6. O=C(NCCc1ccn(-c2ccccc2)n1)C1CCCCC1; < 4.30
7. CCc1cccc(CC)c1-n1c(SCC(=O)N2CC(=O)Nc3ccccc32)nnc1-c1cccnc1; < 4.30
8. COc1ccc2c(Cl)c(C(=O)N3CCC3)sc2c1Cl; < 4.30
9. CC(=O)Nc1nc(-c2cc(C)ccc2C)c(C)s1; < 4.30
10. Cc1ccccc1NS(=O)(=O)c1ccc2[nH]cc(C(=O)NC3CCCC3)c(=O)c2c1; 4.49
11. CN(C)S(=O)(=O)c1ccc(-c2cnc(N)c(-c3nc4ccc(F)cc4[nH]3)c2)cc1; 5.40
12. Cc1cccc(NS(=O)(=O)c2cnc3sc(C)cn3c2=O)c1; < 4.30
13. CCOC(=O)c1cn[nH]c1S(=O)(=O)N1CCC1c1ccccc1 (stereo not drawn); < 4.30
14. CCOc1ccc(CN(C)Cc2nc(N)nc(Nc3ccc(C)cc3)n2)cc1; 4.40
15. Cn1c(CN2CCN(c3ncc(C(F)(F)F)cc3Cl)CC2)nc2ccncc21; 5.20
16. Cc1ccccc1CNc1cc(C2CC2)nc(-c2nccn2C)n1; 5.00
17. COc1ncc(-c2ccc3ncnc(N4CCOCC4)c3c2)cc1NS(C)(=O)=O; 6.00
18. Fc1ccc(Nc2nc(-c3ccccn3)cs2)cc1; < 4.30
19. Clc1ccc(CN2CCN(C3=NCCN3)CC2)cc1Cl; < 4.30
20. O=C(c1ccccc1)N1CCC(C(=O)N2CCC(Oc3ccccc3Cl)CC2)CC1; < 4.30
21. CNC(=O)Oc1ccc(C(=O)NCc2ccccc2)cc1OC(=O)NC; < 4.30
22. Cc1nc2c(-c3cccs3)c(C)nn2c(NCCO)c1C; < 4.30
23. Cc1nc(N2CC(C)OC(C)C2)sc1C(=O)Nc1ccc2c(c1)OCO2 (stereo not drawn); < 4.30

###

# Test system: L. donovani-infected THP-1 macrophages, intracellular amastigote imaging
# Test description: antileishmanial activity in infected THP-1 macrophages – imaging, THP-1 host macrophages, host toxicity (AID 1159564)
# Recorded conditions: measured here: THP-1 host cell toxicity
Experimental endpoint: IC50 (µM)

1) O=C(Nc1nc(-c2ccccn2)cs1)c1ccc(S(=O)(=O)N2CCCCC2)cc1; 13
2) Cc1c(C#N)c([N+](=O)[O-])nn1Cc1cccc(Cl)c1Cl; 16
3) O=C(NC1CCN(C2Cc3ccc(NS(=O)(=O)c4cc(F)cc(F)c4)cc3C2)CC1)C1CC1 (stereo not given); 13
4) CCCc1cc(C(=O)Nc2ncc(-c3cccc(Br)c3)n2C)n[nH]1; 32
5) O=C(Nc1nc2cc(Cl)ccc2o1)c1cccc(Cl)c1; 6.3

###

# System: L. donovani-infected THP-1 macrophages, intracellular amastigote imaging
# Test description: antileishmanial activity in infected THP-1 macrophages – imaging, THP-1 host macrophages, host toxicity (AID 1159564)
# Recorded conditions: measured here: THP-1 host cell toxicity
pIC50: −log10 of the molar value.
Each entry below carries its reported pIC50.
Experimental endpoint: pIC50

1) Cc1ccc(NC(=O)c2ccc([N+](=O)[O-])s2)cc1S(=O)(=O)N1CCOCC1; 4.40
2) COc1cc(F)c2ncc(F)c(CCN3CC[C@H](NCc4cc5c(cn4)OCS5)[C@@H](O)C3)c2c1; 4.80
3) Cc1nc(-c2nc(NCc3ccc(Cl)cc3)c3cccnc3c2O)n[nH]1; 5.20
4) CC(CCc1ccccc1)NC(=O)CN(Cc1ccccn1)Cc1ccccn1 (stereo unspecified); 4.70
5) CC(c1ccc2c(c1)CCCC2)N(C)c1ncc2c(N)nc(N)nc2n1 (stereo unspecified); 4.60
6) Cc1ccc(S(C)(=O)=O)cc1Nc1nccc(-c2sc(N)nc2-c2ccccc2)n1; 4.70
7) CCOc1ccc(Nc2ccc(S(=O)(=O)N3CCN(C)CC3)cc2[N+](=O)[O-])cc1OCC; 4.89
8) O=c1[nH]ccc2ccc(-c3ccncc3)cc12; 4.40
9) COc1ccc(NS(=O)(=O)c2cc(NC(=O)c3ccc([N+](=O)[O-])s3)ccc2OC)cc1; 4.89
10) O=C(CC1(O)C(=O)N(Cc2ccccc2)c2ccc(Br)cc21)c1cccnc1 (stereo unspecified); 4.40
11) O=C1COC(c2ccccc2)(c2ccccc2)CN1C1CCN(Cc2ccc(-n3ccnc3)cc2)CC1; 4.80
12) CNC(=O)C1Cc2ccccc2N1C(=O)Cc1ccc(OC)cc1 (stereo unspecified); 5.10
13) Cc1ccccc1NS(=O)(=O)c1ccc2[nH]cc(C(=O)NC3CCCC(C)C3C)c(=O)c2c1 (stereo unspecified); 4.89

###

# System: L. donovani-infected THP-1 macrophages, intracellular amastigote imaging
# Test description: antileishmanial activity in infected THP-1 macrophages – imaging, THP-1 host macrophages, host toxicity (AID 1159564)
# Recorded conditions: measured here: THP-1 host cell toxicity
pIC50: −log10 of the molar value.
Below, each entry is listed with its recorded pIC50.
Experimental endpoint: pIC50

1. COC(=O)c1ccc(-c2cnc3ccc(NCc4ccccn4)nn23)cc1; 4.89
2. NC(=O)c1cc(F)ccc1Nc1nc(NC2CCC(O)CC2)ncc1Cl (stereo unspecified); 6.20
3. O=c1cc(CSc2ccc(Cl)cc2)nc(-c2ccccn2)[nH]1; 5.40
